# credit: the supplement of paper PMC11451515

Reported cell viability values for the following molecules.
Tested on: SEM cells
RUN_DESCRIPTION: cell viability relative to DMSO control; higher = less cytotoxic
DETAILS: HPLM + 10% dialyzed FBS; 48 h; 0.0632 µM
RESULT_TYPE: cell viability (%)

>  <CHEMICAL_STRUCTURE>
CN(C)CC(C)(C)CNc1nn2c(-c3ccccc3)nnc2cc1C1CCC1

>  <RESULT_UNITS>
%

>  <REPORTED_RESULT>
92.1

$$$$
>  <CHEMICAL_STRUCTURE>
CN1CCCN(CC1)C2=CC=C3C(=O)\C(=C/4SC5=C(C=CC=C5)N4C3=N2)C(=O)NCC6=CN=C(C)C=N6

>  <RESULT_UNITS>
%

>  <REPORTED_RESULT>
97.9

$$$$
>  <CHEMICAL_STRUCTURE>
CC(C)c1cc(C(C)C)c(CC(=O)N[S+](=O)([O-])Oc2c(C(C)C)cccc2C(C)C)c(C(C)C)c1

>  <RESULT_UNITS>
%

>  <REPORTED_RESULT>
100

$$$$
>  <CHEMICAL_STRUCTURE>
O=C(O)c1cccnc1Nc1cccc(C(F)(F)F)c1

>  <RESULT_UNITS>
%

>  <REPORTED_RESULT>
119

$$$$
>  <CHEMICAL_STRUCTURE>
Oc1nc(-c2ccc(C(F)(F)F)cc2)nc2c1CSCC2

>  <RESULT_UNITS>
%

>  <REPORTED_RESULT>
110

$$$$
>  <CHEMICAL_STRUCTURE>
COC(=O)c1ccc2c(c1)NC(=O)/C2=C(\Nc1ccc(N(C)C(=O)CN2CCN(C)CC2)cc1)c1ccccc1

>  <RESULT_UNITS>
%

>  <REPORTED_RESULT>
48.9

$$$$

----------
System: NOMO1
RUN_DESCRIPTION: cell viability relative to DMSO control; higher = less cytotoxic
DETAILS: HPLM + 10% dialyzed FBS; 48 h; 0.00234 µM
Reported cell viability values for the following compounds.

>  <CHEMICAL_STRUCTURE>
CN1CC(=O)N2[C@H](c3ccc4c(c3)OCO4)c3[nH]c4ccccc4c3C[C@@H]2C1=O

>  <cell viability, %>
99.6

$$$$
>  <CHEMICAL_STRUCTURE>
COC1=CC=C(C(=C1)OC(C)C)C/2=N/[C@@H]([C@@H](N2C(=O)N3CCNC(=O)C3)C4=CC=C(Cl)C=C4)C5=CC=C(Cl)C=C5

>  <cell viability, %>
115

$$$$
>  <CHEMICAL_STRUCTURE>
CCc1ccc(/C=C2/SC(=S)NC2=O)cc1

>  <cell viability, %>
79.1

$$$$
>  <CHEMICAL_STRUCTURE>
COC1=C(OCCCN2CCOCC2)C=CC\3=C1/N=C(/NC(=O)C4=CN=C(N)N=C4)N5CC/N=C35

>  <cell viability, %>
111

$$$$

----------
Test system: P12-Ichikawa
RUN_DESCRIPTION: cell viability relative to DMSO control; higher = less cytotoxic
DETAILS: RPMI 5 mM glucose + 10% FBS; 48 h; 0.000781 µM
Reported cell viability values for the following molecules.

>  <MOLECULE>
CCOC(=O)C(C)OC1=CC=CC2=C1\C=C/N(CC(=O)NC3=CC=C4OCCOC4=C3)C2=O (stereo not given)

>  <cell viability (%)>
89.6

$$$$
>  <MOLECULE>
COC(=O)C\1=C(C)\N\C(=C(/C1C2=CC=CC3=NON=C23)C(=O)OC(C)C)C (stereo not given)

>  <cell viability (%)>
96.1

$$$$
>  <MOLECULE>
COc1ccc2c(c1)[C@]13CCCCC1C(C2)N(C)CC3 (stereo not given in full)

>  <cell viability (%)>
111

$$$$
>  <MOLECULE>
COc1cccc2c1C(=O)c1c(O)c3c(c(O)c1C2=O)C[C@@](O)(C(=O)CO)C[C@@H]3O[C@H]1C[C@H](N)[C@H](O)[C@H](C)O1

>  <cell viability (%)>
113

$$$$
>  <MOLECULE>
O=C(c1ccccc1)c1ccc2n1CCC2C(=O)O (stereo not given)

>  <cell viability (%)>
127

$$$$

----------
Test system: SEM cells
RUN_DESCRIPTION: cell viability relative to DMSO control; higher = less cytotoxic
DETAILS: RPMI 5 mM glucose + 10% FBS; 48 h; 0.00234 µM

>  <MOLECULE>
O=C(O)c1cccnc1Nc1cccc(C(F)(F)F)c1

>  <cell viability, %>
97.1

$$$$
>  <MOLECULE>
CCCCCCCCCCCCCC(=O)N[C@H](CO)[C@H](O)c1ccc([N+](=O)[O-])cc1

>  <cell viability, %>
76.1

$$$$
>  <MOLECULE>
OCC(O)C(O)C(O)CO (stereo not given)

>  <cell viability, %>
91.1

$$$$
>  <MOLECULE>
CCOC(=O)C(C)OC1=CC=CC2=C1\C=C/N(CC(=O)NC3=CC=C4OCCOC4=C3)C2=O (stereo not given)

>  <cell viability, %>
87.8

$$$$
>  <MOLECULE>
Nc1ncnc2c1c(-c1cccc(OCc3ccccc3)c1)cn2[C@H]1C[C@@H](CN2CCC2)C1

>  <cell viability, %>
115

$$$$

----------
Test system: NOMO1
RUN_DESCRIPTION: cell viability relative to DMSO control; higher = less cytotoxic
DETAILS: HPLM + 10% dialyzed FBS; 48 h; 5.12 µM
// class assignment uses cell viability with these ranges: lower segment = under 70%, middle segment = from 70% up to 90%, upper segment = 90% and over

>  <CHEMICAL_STRUCTURE>
CNC(=O)c1ccc(Nc2cc(Nc3ccccc3[S+](=O)([O-])C(C)C)c3cc[nH]c3n2)nc1

>  <ASSIGNED_CLASS>
middle segment

$$$$
>  <CHEMICAL_STRUCTURE>
Cc1ccc([S+](=O)([O-])OCC(=O)Nc2ccc(C(=O)O)c(O)c2)cc1

>  <ASSIGNED_CLASS>
upper segment

$$$$
>  <CHEMICAL_STRUCTURE>
COC(=O)c1ccc2c(c1)NC(=O)/C2=C(\Nc1ccc(N(C)C(=O)CN2CCN(C)CC2)cc1)c1ccccc1

>  <ASSIGNED_CLASS>
middle segment

$$$$
>  <CHEMICAL_STRUCTURE>
CC(C)OC(=O)[C@H](C)N[P@](=O)(OC[C@H]1O[C@@H](N2\C=C/C(=O)NC2=O)[C@](C)(F)[C@@H]1O)OC3=CC=CC=C3

>  <ASSIGNED_CLASS>
lower segment

$$$$
>  <CHEMICAL_STRUCTURE>
Cc1coc2c1C(=O)C(=O)c1c-2ccc2c1CCCC2(C)C

>  <ASSIGNED_CLASS>
middle segment

$$$$
>  <CHEMICAL_STRUCTURE>
CN1CCCN(CC1)C2=CC=C3C(=O)\C(=C/4SC5=C(C=CC=C5)N4C3=N2)C(=O)NCC6=CN=C(C)C=N6

>  <ASSIGNED_CLASS>
upper segment

$$$$

----------
Test system: NOMO1
RUN_DESCRIPTION: cell viability relative to DMSO control; higher = less cytotoxic
DETAILS: HPLM + 10% dialyzed FBS; 48 h; 1.71 µM
RESULT_TYPE: cell viability

>  <CHEMICAL_STRUCTURE>
COC1=CC=C(C(=C1)OC(C)C)C/2=N/[C@@H]([C@@H](N2C(=O)N3CCNC(=O)C3)C4=CC=C(Cl)C=C4)C5=CC=C(Cl)C=C5

>  <RESULT_TYPE>
cell viability

>  <REPORTED_RESULT>
105%

$$$$
>  <CHEMICAL_STRUCTURE>
Cc1cccc(Nc2ccncc2[S+](=O)([O-])NC(=O)NC(C)C)c1

>  <RESULT_TYPE>
cell viability

>  <REPORTED_RESULT>
87.3%

$$$$
>  <CHEMICAL_STRUCTURE>
Cc1csc(-c2nnc(Nc3ccc(Oc4ncccc4-c4ccnc(N)n4)cc3)c3ccccc23)c1

>  <RESULT_TYPE>
cell viability

>  <REPORTED_RESULT>
86.7%

$$$$
>  <CHEMICAL_STRUCTURE>
CC12CC3CC(C)(C1)CC(N)(C3)C2

>  <RESULT_TYPE>
cell viability

>  <REPORTED_RESULT>
129%

$$$$

----------
Tested on: NOMO1
RUN_DESCRIPTION: cell viability relative to DMSO control; higher = less cytotoxic
DETAILS: RPMI 5 mM glucose + 10% FBS; 48 h; 0.00702 µM

>  <COMPOUND>
CCOC(=O)C(C)OC1=CC=CC2=C1\C=C/N(CC(=O)NC3=CC=C4OCCOC4=C3)C2=O (stereo not given)

>  <cell viability>
101%

$$$$
>  <COMPOUND>
CCCCOc1c(C(=O)c2c(F)cc(C)cc2F)cnc2[nH]ncc12

>  <cell viability>
82.7%

$$$$
>  <COMPOUND>
Nc1ccc([S+](=O)([O-])Nc2ccnn2-c2ccccc2)cc1

>  <cell viability>
97.8%

$$$$
>  <COMPOUND>
C[C@@H]1CCO[C@H]2CN\3/C=C(/C(=O)NCC4=C(F)C=C(F)C=C4)C(=O)\C(=C3C(=O)N12)O

>  <cell viability>
110%

$$$$
>  <COMPOUND>
O=C(O)c1cccnc1Nc1cccc(C(F)(F)F)c1

>  <cell viability>
108%

$$$$
>  <COMPOUND>
N[C@@H]1CONC1=O

>  <cell viability>
95.7%

$$$$
>  <COMPOUND>
CCCCCNC(=O)N1CCC(CN(Cc2ccc(Cl)cc2)Cc2ccc([N+](=O)[O-])s2)C1 (stereo not given)

>  <cell viability>
104%

$$$$
>  <COMPOUND>
O=C(O)c1cc(/N=N/c2ccc([S+](=O)([O-])Nc3ccccn3)cc2)ccc1O

>  <cell viability>
115%

$$$$
>  <COMPOUND>
COc1cc[nH]c2ncc(C(=O)C(=O)N3CCN(C(=O)c4ccccc4)C[C@H]3C)c1-2

>  <cell viability>
101%

$$$$
>  <COMPOUND>
COC1=C(OCCCN2CCOCC2)C=CC\3=C1/N=C(/NC(=O)C4=CN=C(N)N=C4)N5CC/N=C35

>  <cell viability>
84.4%

$$$$
>  <COMPOUND>
CN1CCCN(CC1)C2=CC=C3C(=O)\C(=C/4SC5=C(C=CC=C5)N4C3=N2)C(=O)NCC6=CN=C(C)C=N6

>  <cell viability>
99.8%

$$$$
>  <COMPOUND>
CC(C)c1cc(C(C)C)c(CC(=O)N[S+](=O)([O-])Oc2c(C(C)C)cccc2C(C)C)c(C(C)C)c1

>  <cell viability>
88.6%

$$$$
>  <COMPOUND>
COC1=CC=C(C(=C1)OC(C)C)C/2=N/[C@@H]([C@@H](N2C(=O)N3CCNC(=O)C3)C4=CC=C(Cl)C=C4)C5=CC=C(Cl)C=C5

>  <cell viability>
106%

$$$$
>  <COMPOUND>
CC[C@H]1OC(=O)[C@H](C)C(=O)[C@H](C)[C@@H](O[C@H]2O[C@H](C)C[C@H](N(C)C)[C@H]2O)[C@](C)(OC)C[C@@H](C)C(=O)[C@H](C)[C@H]2N(CCCCn3cnc(-c4cccnc4)c3)C(=O)O[C@]12C

>  <cell viability>
118%

$$$$
>  <COMPOUND>
CC(C)OC(=O)[C@H](C)N[P@](=O)(OC[C@H]1O[C@@H](N2\C=C/C(=O)NC2=O)[C@](C)(F)[C@@H]1O)OC3=CC=CC=C3

>  <cell viability>
116%

$$$$
